We begin with a simple list: items and their reported koff.
# ASSAY_SYSTEM: T1, tissue factor (S33 to E251) (Homo sapiens, UniProt P13726)
# T1 construct: tissue factor (TF), residues S33 to E251; the antigen of the antibody D3h44 in PDB 1JPS; The tag was removed with Ulp1; tag-free TF was used; Antigen residues named in the text (S202, K169, P194, I152) follow the numbering of PDB 1JPS, not that of the construct limits; also called TF; antigen; source: E. coli BL21 (DE3), purified (Ni-NTA, SEC); not shown: His6, N-terminal, cleaved; SUMO, …
# T1 sequence (P13726 33-251): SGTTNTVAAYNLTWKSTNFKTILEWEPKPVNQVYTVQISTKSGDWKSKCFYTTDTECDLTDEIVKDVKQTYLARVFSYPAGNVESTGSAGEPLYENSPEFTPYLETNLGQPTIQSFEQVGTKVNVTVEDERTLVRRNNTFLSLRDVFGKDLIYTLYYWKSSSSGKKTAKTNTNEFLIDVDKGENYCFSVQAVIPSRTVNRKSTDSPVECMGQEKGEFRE
# ASSAY: SPR; Biacore 8K; TF immobilised on a CM5 chip by amine coupling (450-750 response units); Fab as analyte; single-cycle kinetics, association 120 s, dissociation 1800 s, no regeneration; PBS with 0.005% Tween-20; three measurements
# CONDITION_INFO: both partners purified

# BINDER, koff (s⁻¹)
measured = [
    ("D3h44 Fab L-H91S (Fab, V domains shown, as the heavy chain of m2 (PDB 1JPS chain H); as the light chain of m2 (PDB 1JPS chain L) with the stated change; Tag as for m2; source: ExpiCHO, purified (Ni-NTA, SEC)) VH: EVQLVESGGGLVQPGGSLRLSCAASGFNIKEYYMHWVRQAPGKGLEWVGLIDPEQGNTIYDPKFQDRATISADNSKNTAYLQMNSLRAEDTAVYYCARDTAAYFDYWGQGTLVTVSS VL: DIQMTQSPSSLSASVGDRVTITCRASRDIKSYLNWYQQKPGKAPKVLIYYATSLAEGVPSRFSGSGSGTDYTLTISSLQPEDFATYYCLQSGESPWTFGQGTKVEIK", 0.059),
    ("D3h44 Fab H-I59H (Fab, V domains shown, as the heavy chain of m2 (PDB 1JPS chain H) with the stated change; as the light chain of m2 (PDB 1JPS chain L); Tag as for m2; source: ExpiCHO, purified (Ni-NTA, SEC)) VH: EVQLVESGGGLVQPGGSLRLSCAASGFNIKEYYMHWVRQAPGKGLEWVGLIDPEQGNTHYDPKFQDRATISADNSKNTAYLQMNSLRAEDTAVYYCARDTAAYFDYWGQGTLVTVSS VL: DIQMTQSPSSLSASVGDRVTITCRASRDIKSYLNWYQQKPGKAPKVLIYYATSLAEGVPSRFSGSGSGTDYTLTISSLQPEDFATYYCLQHGESPWTFGQGTKVEIK", 0.038),
    ("D3h44 Fab L-N34D/L-H91S double-point mutant (Fab, V domains shown, as the heavy chain of m2 (PDB 1JPS chain H); as the light chain of m2 (PDB 1JPS chain L) with the stated changes; Tag as for m2; source: ExpiCHO, purified (Ni-NTA, SEC)) VH: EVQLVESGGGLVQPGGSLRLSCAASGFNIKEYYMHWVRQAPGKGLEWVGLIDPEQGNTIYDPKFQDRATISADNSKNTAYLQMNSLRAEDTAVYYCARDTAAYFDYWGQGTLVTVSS VL: DIQMTQSPSSLSASVGDRVTITCRASRDIKSYLDWYQQKPGKAPKVLIYYATSLAEGVPSRFSGSGSGTDYTLTISSLQPEDFATYYCLQSGESPWTFGQGTKVEIK", "3e-05"),
    ("D3h44 Fab H-N57Y (Fab, V domains shown, as the heavy chain of m2 (PDB 1JPS chain H) with the stated change; as the light chain of m2 (PDB 1JPS chain L); Tag as for m2; source: ExpiCHO, purified (Ni-NTA, SEC)) VH: EVQLVESGGGLVQPGGSLRLSCAASGFNIKEYYMHWVRQAPGKGLEWVGLIDPEQGYTIYDPKFQDRATISADNSKNTAYLQMNSLRAEDTAVYYCARDTAAYFDYWGQGTLVTVSS VL: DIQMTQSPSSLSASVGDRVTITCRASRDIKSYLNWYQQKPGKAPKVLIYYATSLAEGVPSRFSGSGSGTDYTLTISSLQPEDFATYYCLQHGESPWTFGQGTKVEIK", "1.8e-05"),
    ("D3h44 Fab H-K30Q (Fab, V domains shown, as the heavy chain of m2 (PDB 1JPS chain H) with the stated change; as the light chain of m2 (PDB 1JPS chain L); Tag as for m2; source: ExpiCHO, purified (Ni-NTA, SEC)) VH: EVQLVESGGGLVQPGGSLRLSCAASGFNIQEYYMHWVRQAPGKGLEWVGLIDPEQGNTIYDPKFQDRATISADNSKNTAYLQMNSLRAEDTAVYYCARDTAAYFDYWGQGTLVTVSS VL: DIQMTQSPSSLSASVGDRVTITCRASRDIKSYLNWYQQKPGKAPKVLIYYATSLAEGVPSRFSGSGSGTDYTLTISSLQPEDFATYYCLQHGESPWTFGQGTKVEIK", 0.00014),
    ("D3h44 Fab L-H91Q (Fab, V domains shown, as the heavy chain of m2 (PDB 1JPS chain H); as the light chain of m2 (PDB 1JPS chain L) with the stated change; Tag as for m2; source: ExpiCHO, purified (Ni-NTA, SEC)) VH: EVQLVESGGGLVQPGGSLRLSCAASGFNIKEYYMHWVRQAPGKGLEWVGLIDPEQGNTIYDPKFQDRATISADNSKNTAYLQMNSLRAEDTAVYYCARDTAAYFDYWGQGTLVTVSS VL: DIQMTQSPSSLSASVGDRVTITCRASRDIKSYLNWYQQKPGKAPKVLIYYATSLAEGVPSRFSGSGSGTDYTLTISSLQPEDFATYYCLQQGESPWTFGQGTKVEIK", 0.00038),
    ("D3h44 Fab L-H91N (Fab, V domains shown, as the heavy chain of m2 (PDB 1JPS chain H); as the light chain of m2 (PDB 1JPS chain L) with the stated change; Tag as for m2; source: ExpiCHO, purified (Ni-NTA, SEC)) VH: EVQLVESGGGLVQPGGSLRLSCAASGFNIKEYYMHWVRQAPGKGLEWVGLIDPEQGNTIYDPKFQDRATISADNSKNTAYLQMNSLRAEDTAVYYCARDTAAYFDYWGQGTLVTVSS VL: DIQMTQSPSSLSASVGDRVTITCRASRDIKSYLNWYQQKPGKAPKVLIYYATSLAEGVPSRFSGSGSGTDYTLTISSLQPEDFATYYCLQNGESPWTFGQGTKVEIK", 0.00026),
]
